EC50 overview
- TARGET OR TEST SYSTEM: Beta-1 adrenergic receptor (Homo sapiens) (UniProt P08588)
- METHOD DESCRIPTION: Agonist activity at human adrenergic receptor expressed in CHO cells assessed as cAMP accumulation
Note: unit µM is implicit; provide only the numeric part.

Worked set:
Answer with the recorded EC50 for the compound listed here: O=C(Cc1nccn1Cc1ccc(Cl)cc1)Nc1ccc(CCNC[C@H](O)COc2ccccc2)cc1
0.074

Answer with the recorded EC50 for the compound listed here: O=C(Cc1nccn1Cc1ccccc1)Nc1ccc(CCNC[C@H](O)COc2ccccc2)cc1
0.13

Answer with the recorded EC50 for the compound listed here: O=C(Cc1cccc(OCc2ccccc2)n1)Nc1ccc(CCNC[C@H](O)COc2ccccc2)cc1
0.2

Continuing:
Answer with the recorded EC50 for the compound listed here: Cc1cccnc1CC(=O)Nc1ccc(CCNC[C@H](O)COc2ccccc2)cc1
0.39
